Organism: Rattus norvegicus
Test: DrugMatrix - Regimen: Daily Repeat
Type: toxicity, organism-based, Sprague-Dawley
Parameters: regimen Daily Repeat, gender Male, age 6-8 weeks
Conditions: in vivo, po, 0 mg/kg, 120 h, tissue Plasma, route oral GAVAGE, dose level Control, time 5 day, vehicle 100 % WATER
Please enter t where URIC ACID is greater than or equal to 0.9 mg/dL, and f where it is lower.

Q: I'd appreciate it if you could say whether C[C@H]1c2cccc(O)c2C(=O)C2=C(O)[C@]3(O)C(=O)C(C(N)=O)=C(O)[C@@H](N(C)C)[C@@H]3[C@@H](O)[C@@H]21.O [DOXYCYCLINE] has URIC ACID at least equal to 0.9 mg/dL.
A: t

Q: Then this compound: Cc1onc(-c2ccccc2Cl)c1C(=O)N[C@@H]1C(=O)N2[C@@H]1SC(C)(C)[C@@H]2C(=O)O [CLOXACILLIN]
A: t

Q: Then this compound: CNNCc1ccc(C(=O)NC(C)C)cc1 [PROCARBAZINE]
A: f

Q: Then this compound: Clc1cccc(Cl)c1N=C1NCCN1 [CLONIDINE]
A: t

Q: Then this compound: C=CCC1(C(C)CCC)C(=O)NC(=O)NC1=O (configuration not stated) [SECOBARBITAL]
A: f

Q: Then this compound: N[C@@H](Cc1ccc(O)c(O)c1)C(=O)O [LEVODOPA]
A: t

Q: Then this compound: COc1cc2nc(N3CCN(C(=O)C4COc5ccccc5O4)CC3)nc(N)c2cc1OC (configuration not stated) [DOXAZOSIN]
A: t
